# TARGET UNDER TEST: biotin carboxylase (BC) (Escherichia coli)
# Construct: His tag (N); made in house
# METHOD DESCRIPTION: Biotin carboxylase inhibition assay, ATP or biotin varied (pyruvate kinase/lactic dehydrogenase coupled)
# Type: biochemical
# CONDITION SET: biotin varied 20-200 mM; ATP constant 0.2 mM (subsaturating); SABA1 0, 75, 150 µM; read-out: Kis, competitive inhibition versus biotin
# Experimental: For inhibition studies that varied ATP or biotin, initial velocities were measured as previously reported. In brief, pyruvate kinase and lactic dehydrogenase were used to couple ADP production to NADH oxidation, which can be measured spectrophotometrically at 340 nm. For inhibition studies varying ADP, activity was determined by following the production of inorganic phosphate (Pi) using the EnzChek® Phosphate Assay Kit (Molecular Probes) according to the manufacturer’s protocol. […]
READOUT LABEL: Ki (µM)
Answers are plain numbers, in µM.

Ask: Entry CCOC(=O)c1ccc(NS(=O)(=O)c2cc(C(=O)Nc3ccccc3)ccc2Cl)cc1 : reported Ki = ?
Reply: 142
